Test system: Mycolicibacterium phlei
Assay: Antimicrobial activity against Mycobacterium phlei assessed as inhibition at 20 ug/6 mm disk after 1 to 2 days by agar diffusion assay
Type: functional

| structureAsSmiles | unitsOfMeasure | diameter of the inhibition zone (DIZ) |
| --- | --- | --- |
| COc1ccc(N(CC(=O)NCCCSc2ccccc2)C(=O)CCSC2=C(C)C(=O)c3ccccc3C2=O)cc1 | mm | 0 |
| COc1ccc(N(CC(=O)NCCC[Se]c2ccccc2)C(=O)CNC(=O)OC(C)(C)C)cc1 | mm | 0 |
| COc1ccc(N(CC(=O)NCCC[Se]c2ccccc2)C(=O)c2ccccc2)cc1 | mm | 0 |
| COc1ccc(N(CC(=O)NCCC[Se]c2ccccc2)C(=O)/C=C/c2ccccc2)cc1 | mm | 0 |
| O=C(COC(=O)C#Cc1ccccc1)NCCC[Te]c1ccccc1 | mm | 15 |
| COc1ccc(N(CC(=O)NCCCSc2ccccc2)C(=O)/C=C/c2ccccc2)cc1 | mm | 15 |
| COc1ccc(N(CC(=O)NCCC[Se]c2ccccc2)C(=O)C#Cc2ccccc2)cc1 | mm | 0 |
| COc1ccc(N(CC(=O)NCCC[Te]c2ccccc2)C(=O)CCSC2=C(C)C(=O)c3ccccc3C2=O)cc1 | mm | 15 |
| COc1ccc(N(CC(=O)NCCC[Te]c2ccccc2)C(=O)c2ccccc2)cc1 | mm | 17 |
| CC(C)(C)OC(=O)NCC(=O)OCC(=O)NCCC[Te]c1ccccc1 | mm | 14 |
